Attribute: chromatographic logD
experiment: CHI Log D procedure; assay type: physicochemical; conditions: pH 7.4, CHI Log D

>  <compound>
CC(=O)N1CCC[C@]12CC=CCCCC1(CCCC=CCCCCCC[C@@](C)(C(=O)N[C@@H](Cc3ccccc3)C(=O)N[C@@H](Cc3csc4ccccc34)C(=O)N[C@@H](CCC(N)=O)C(N)=O)NC(=O)[C@H]([C@@H](C)O)NC(=O)[C@H](Cc3ccccc3)NC(=O)[C@H](C)NC(=O)[C@H](C)NC(=O)[C@H](CCC(=O)O)NC(=O)[C@H](CC(=O)O)NC1=O)NC(=O)[C@H](C)NC(=O)[C@H](CC(=O)O)NC2=O (some centres unmarked) [I-423]

>  <chromatographic logD>
2.09

$$$$
>  <compound>
CC(=O)N1CCC[C@]12CC=CCCCC1(CCCC=CCOC(=O)N(C)CCC[C@@](C)(C(=O)N[C@@H](Cc3cccc(F)c3)C(=O)N[C@@H](Cc3csc4ccccc34)C(=O)N[C@@H](CCC(N)=O)C(N)=O)NC(=O)[C@H](C(C)C)NC(=O)[C@H](Cc3ccccc3)NC(=O)[C@H](C)NC(=O)[C@H](C)NC(=O)[C@H](Cc3c[nH]cn3)NC(=O)[C@H](CC(=O)O)NC1=O)NC(=O)[C@H](C)NC(=O)[C@H](CC(=O)O)NC2=O (some centres unmarked) [I-398]

>  <chromatographic logD>
1.85

$$$$

###

Molecular target: beta-catenin/TCF4 engagement (Homo sapiens)
Construct: expressed in transfected cells; host or cells: HEK293
Sequence (P35222 1-781): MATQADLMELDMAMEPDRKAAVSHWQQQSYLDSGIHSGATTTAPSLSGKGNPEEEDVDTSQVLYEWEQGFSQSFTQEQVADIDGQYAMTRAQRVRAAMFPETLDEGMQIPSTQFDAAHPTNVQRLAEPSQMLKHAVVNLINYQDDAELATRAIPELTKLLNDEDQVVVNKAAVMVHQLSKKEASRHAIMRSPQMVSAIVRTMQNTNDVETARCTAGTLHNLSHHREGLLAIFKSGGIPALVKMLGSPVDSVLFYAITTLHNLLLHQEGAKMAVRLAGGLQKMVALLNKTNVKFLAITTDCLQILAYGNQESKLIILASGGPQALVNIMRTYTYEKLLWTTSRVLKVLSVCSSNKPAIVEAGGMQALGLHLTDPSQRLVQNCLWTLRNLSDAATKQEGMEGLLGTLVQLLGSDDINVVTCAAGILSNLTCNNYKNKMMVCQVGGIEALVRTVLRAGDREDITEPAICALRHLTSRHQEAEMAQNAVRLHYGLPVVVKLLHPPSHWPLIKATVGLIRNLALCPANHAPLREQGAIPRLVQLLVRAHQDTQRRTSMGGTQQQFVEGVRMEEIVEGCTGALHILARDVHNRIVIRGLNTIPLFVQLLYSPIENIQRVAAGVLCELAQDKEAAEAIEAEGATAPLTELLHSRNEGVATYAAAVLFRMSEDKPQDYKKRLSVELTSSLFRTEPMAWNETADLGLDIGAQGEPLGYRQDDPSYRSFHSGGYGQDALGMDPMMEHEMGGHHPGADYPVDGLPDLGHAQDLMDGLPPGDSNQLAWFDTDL
Test: Nano-BRET target engagement assay (B-cat-Halo & TCF4-Luc in HEK293 cells)
Format: cell-based
Conditions: absolute IC50; read-out: NanoBRET Abs IC50
pIC50: −log10 of the molar value.

>  <compound>
CC(=O)N1CCC[C@]12CC=CCCCC1(CCCC=CCCCOC(=O)N3CC[C@@](C(=O)N[C@@H](Cc4ccsc4)C(=O)N[C@@H](Cc4csc5ccccc45)C(=O)N[C@@H](CCC(N)=O)C(N)=O)(C3)NC(=O)[C@H](CC(C)C)NC(=O)[C@H](Cc3ccccc3)NC(=O)[C@H](C)NC(=O)[C@H](C)NC(=O)[C@H](CN(CC(=O)O)C(=O)CN3CCOCC3)NC(=O)[C@H](CC(=O)O)NC1=O)NC(=O)[C@H](CC(C)(C)C)NC(=O)[C@H](CC(=O)O)NC2=O (some centres unmarked)

>  <pIC50>
4.50

$$$$
>  <compound>
CC(=O)N1CCC[C@]12CC=CCCCC1(CCCC=CCCCOC(=O)N3CC[C@@](C(=O)N[C@@H](Cc4ccsc4)C(=O)N[C@@H](Cc4csc5ccccc45)C(=O)N[C@@H](CCC(=O)N4CC[C@@H](N(C)C)C4)C(N)=O)(C3)NC(=O)[C@H](CC(C)C)NC(=O)[C@H](Cc3ccccc3)NC(=O)[C@H](C)NC(=O)[C@H](C)NC(=O)[C@H](CN(CC(=O)O)CC(F)(F)F)NC(=O)[C@H](CC(=O)O)NC1=O)NC(=O)[C@H](CC(C)(C)C)NC(=O)[C@H](CC(=O)O)NC2=O (some centres unmarked) [I-1805]

>  <pIC50>
5.03

$$$$

###

target: full-length beta-Catenin (Uniprot ID P35222) (Homo sapiens, UniProt P35222); construct: 10 nM full-length beta-Catenin (Uniprot ID P35222); experiment: Fluorescence polarization IC50 (beta-catenin / 5FAM-TCF4 10-53 competition); assay type: binding; conditions: fluorescence polarization; read-out: beta-Catenin FP IC50
pIC50: −log10 of the molar value.
Attribute: pIC50

>  <molecule>
CC(=O)N1CCC[C@]12CC=CCCCC1(CCCC=CCCCOC(=O)N3CC[C@@](C(=O)N[C@@H](Cc4ccsc4)C(=O)N[C@@H](Cc4cccc(Cl)c4)C(=O)N[C@@H](C)C(N)=O)(C3)NC(=O)[C@H](C(C)C)NC(=O)[C@H](Cc3ccccc3)NC(=O)[C@H](C)NC(=O)[C@H](CCC(N)=O)NC(=O)[C@H](Cc3cccc(C(=O)O)c3)NC(=O)[C@H](CC(=O)O)NC1=O)NC(=O)[C@H](CC(C)(C)C)NC(=O)[C@H](CC(=O)O)NC2=O (some centres unmarked)

>  <target.or.test.system>
full-length beta-Catenin (Uniprot ID P35222) (Homo sapiens, UniProt P35222)

>  <pIC50>
7.89

$$$$
>  <molecule>
CC(=O)N1CCC[C@]12CC=CCCCC1(CCCC=CCCCOC(=O)N3CC[C@@](C(=O)N[C@@H](Cc4ccsc4)C(=O)N[C@@H](Cc4csc5ccccc45)C(=O)N[C@@H](CCC(N)=O)C(N)=O)(C3)NC(=O)[C@H](CC(C)C)NC(=O)[C@H](Cc3ccccc3)NC(=O)[C@H](C)NC(=O)[C@H](C)NC(=O)[C@H]([C@@H](C)O)NC(=O)[C@H](CC(=O)O)NC1=O)NC(=O)[C@H](CC1CCCCC1)NC(=O)[C@H](CC(=O)O)NC2=O (some centres unmarked)

>  <target.or.test.system>
full-length beta-Catenin (Uniprot ID P35222) (Homo sapiens, UniProt P35222)

>  <pIC50>
7.37

$$$$
>  <molecule>
CC(=O)N1CCC[C@]12CC=CCCCC1(CCCC=CCCCOC(=O)N3CC[C@@](C(=O)N[C@@H](Cc4ccsc4)C(=O)N[C@@H](Cc4c[nH]c5cc(Cl)ccc45)C(=O)N[C@@H](CO)C(N)=O)(C3)NC(=O)[C@H](CC(C)C)NC(=O)[C@H](Cc3ccccc3)NC(=O)[C@H](C)NC(=O)[C@H](C)NC(=O)[C@H](CC(=O)O)NC(=O)[C@H](CC(=O)O)NC1=O)NC(=O)[C@H](CC(C)(C)C)NC(=O)[C@H](CC(=O)O)NC2=O (some centres unmarked)

>  <target.or.test.system>
full-length beta-Catenin (Uniprot ID P35222) (Homo sapiens, UniProt P35222)

>  <pIC50>
6.92

$$$$
>  <molecule>
CCCC[C@@H]1NC(=O)[C@H](Cc2cccc(C(=O)O)c2)NC(=O)[C@H](CC(=O)O)NC(=O)C2(CCCC=CCCCOC(=O)N3CC[C@@](C(=O)N[C@@H](Cc4ccsc4)C(=O)N[C@@H](Cc4csc5ccccc45)C(=O)N[C@H](C(N)=O)C(C)C)(C3)NC(=O)[C@H](CC(C)C)NC(=O)[C@H](Cc3ccccc3)NC(=O)[C@H](C)NC1=O)CCCC=CC[C@]1(CCCN1C(C)=O)C(=O)N[C@@H](CC(=O)O)C(=O)N[C@@H](CC(C)(C)C)C(=O)N2 (some centres unmarked)

>  <target.or.test.system>
full-length beta-Catenin (Uniprot ID P35222) (Homo sapiens, UniProt P35222)

>  <pIC50>
7.08

$$$$
>  <molecule>
CC(=O)N1CCC[C@]12CC=CCCCC1(CCCC=CCCCOC(=O)N3CC[C@@](C(=O)N[C@@H](Cc4ccccc4)C(=O)N[C@@H](Cc4csc5ccccc45)C(=O)N[C@H](C(N)=O)[C@@H](C)O)(C3)NC(=O)[C@H](CC(C)C)NC(=O)[C@H](Cc3ccccc3)NC(=O)[C@H](C)NC(=O)[C@H](CCCCNC(C)C)NC(=O)[C@H]([C@@H](C)O)NC(=O)[C@H](CC(N)=O)NC1=O)NC(=O)[C@H](C)NC(=O)[C@H](CC(=O)O)NC2=O (some centres unmarked)

>  <target.or.test.system>
full-length beta-Catenin (Uniprot ID P35222) (Homo sapiens, UniProt P35222)

>  <pIC50>
5.21

$$$$
